# target_desc: recombinant human dipeptidyl peptidase IV (DPPIV) (Homo sapiens (Human), UniProt P27487)
# Sequence (P27487 whole entry): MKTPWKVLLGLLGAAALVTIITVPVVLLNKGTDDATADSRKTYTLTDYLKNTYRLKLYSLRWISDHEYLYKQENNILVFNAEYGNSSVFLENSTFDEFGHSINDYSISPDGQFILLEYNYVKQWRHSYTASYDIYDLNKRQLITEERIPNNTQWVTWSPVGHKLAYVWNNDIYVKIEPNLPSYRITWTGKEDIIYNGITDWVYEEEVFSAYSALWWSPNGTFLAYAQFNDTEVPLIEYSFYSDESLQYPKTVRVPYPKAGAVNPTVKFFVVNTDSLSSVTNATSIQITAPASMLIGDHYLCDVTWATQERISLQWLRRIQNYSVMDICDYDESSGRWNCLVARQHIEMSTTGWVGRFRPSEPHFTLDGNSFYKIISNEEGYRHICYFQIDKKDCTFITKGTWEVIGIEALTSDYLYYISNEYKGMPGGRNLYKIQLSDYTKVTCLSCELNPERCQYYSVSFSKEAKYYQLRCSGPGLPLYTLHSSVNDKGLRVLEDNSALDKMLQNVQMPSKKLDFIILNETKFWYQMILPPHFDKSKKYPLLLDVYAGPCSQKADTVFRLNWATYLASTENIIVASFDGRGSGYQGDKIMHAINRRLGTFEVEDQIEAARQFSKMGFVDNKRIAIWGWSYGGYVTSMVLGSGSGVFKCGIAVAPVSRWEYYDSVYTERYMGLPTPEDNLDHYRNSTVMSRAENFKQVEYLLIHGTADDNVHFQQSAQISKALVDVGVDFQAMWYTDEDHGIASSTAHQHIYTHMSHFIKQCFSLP
# protocol_notes: In vitro IC50 assay, dipeptidyl peptidase IV (Example 15)
# run_parameters: Gly-Pro-AMC, room temperature
Where a SMILES comes first, the peptide text is derived from it.
Each item that follows carries a reported IC50.
measured_parameter: IC50

- compound: "CC(C)[C@H](NC(=O)CNC(=O)CNC(=O)CN1CCN2CCN3CCN(CC1)CC(=O)[O][Ga]([O]C(=O)C2)[O]C(=O)C3)C(=O)N[C@H](C)C(=O)N1CCC[C@H]1B(O)O [Compound 6522GA-02, DOTA(Ga)-Gly-Gly-Val-D-alaboroPro] (HELM PEPTIDE1{[O=C1CN2CCN3CCN(CC(=O)[*:2])CCN(CC2)CC(=O)[O][Ga]([O]1)[O]C(=O)C3].G.G.V.[dA].[OB(O)[C@@H]1CCCN1[*:1]]}$$$$V2.0)"
  result: "> 100 µM"
- compound: "CC(C)[C@H](NC(=O)CNC(=O)CNC(=O)CN1CCN2CCN3CCN(CC1)CC(=O)[O][Lu]([O]C(=O)C2)[O]C(=O)C3)C(=O)N[C@H](C)C(=O)N1CCC[C@H]1B(O)O [Compound 6522LU, DOTA(Lu)-Gly-Gly-Val-D-ala-boroPro] (HELM PEPTIDE1{[O=C1CN2CCN3CCN(CC(=O)[*:2])CCN(CC2)CC(=O)[O][Lu]([O]1)[O]C(=O)C3].G.G.V.[dA].[OB(O)[C@@H]1CCCN1[*:1]]}$$$$V2.0)"
  result: "> 100 µM"
- compound: "C[C@@H](NC(=O)c1ccc(NNC(=O)CCCCCNC(=O)CN2CCN3CCN4CCN(CC2)CC(=O)[O][Ga]([O]C(=O)C3)[O]C(=O)C4)cc1)C(=O)N1CCC[C@H]1B(O)O [Compound 6486GA]"
  result: "> 100 µM"
